Biological target: UniProtKB P34972
Assay: Displacement of [3H]CP-55940 from human recombinant CB2 receptor expressed in HEK293 cells
Type: cell-based
Settings: read-out: Ki
pKi: −log10 of the molar value.

# molecule, resultModifier, pKi
measured = [
    ("CN1CCCC1CCn1cc(C(=O)C2C(C)(C)C2(C)C)c2ccccc21 (configuration not stated)", "<", 6.00),
    ("CC1(C)C(C(=O)c2cn(CCN3CCOCC3)c3ccccc23)C1(C)C", "=", 8.34),
    ("O=C(c1cn(CCN2CCOCC2)c2ccccc12)C1CCCCC1", "=", 6.86),
    ("CC1(C)C(C(=O)c2cn(CCN3C(=O)CCC3=O)c3ccccc23)C1(C)C", "=", 6.77),
    ("O=C(c1cn(CCN2CCOCC2)c2ccccc12)C1CCCCCC1", "=", 7.96),
    ("CC1(C)C(C(=O)c2cn(Cc3ccccc3)c3ccccc23)C1(C)C", "=", 8.09),
    ("CC1(C)C(C(=O)c2cn(CCc3cccs3)c3ccccc23)C1(C)C", "=", 8.55),
    ("CC1(C)C(C(=O)c2cn(CCC3CCOCC3)c3ccccc23)C1(C)C", "=", 8.55),
    ("CC(C)[C@H]1CC[C@H](C(=O)c2cn(CCN3CCOCC3)c3ccccc23)CC1", "=", 6.72),
    ("CC1(C)C(C(=O)c2cn(CCCO)c3ccccc23)C1(C)C", "=", 8.68),
    ("O=C(c1cn(CC2CCOCC2)c2ccccc12)C12CC3CC(CC1C3)C2", "=", 8.68),
    ("CCCn1cc(C(=O)C2C(C)(C)C2(C)C)c2ccccc21", "=", 8.04),
]

----------
Target: Cannabinoid receptor 2 (Homo sapiens, UniProt P34972)
Sequence (P34972 whole entry): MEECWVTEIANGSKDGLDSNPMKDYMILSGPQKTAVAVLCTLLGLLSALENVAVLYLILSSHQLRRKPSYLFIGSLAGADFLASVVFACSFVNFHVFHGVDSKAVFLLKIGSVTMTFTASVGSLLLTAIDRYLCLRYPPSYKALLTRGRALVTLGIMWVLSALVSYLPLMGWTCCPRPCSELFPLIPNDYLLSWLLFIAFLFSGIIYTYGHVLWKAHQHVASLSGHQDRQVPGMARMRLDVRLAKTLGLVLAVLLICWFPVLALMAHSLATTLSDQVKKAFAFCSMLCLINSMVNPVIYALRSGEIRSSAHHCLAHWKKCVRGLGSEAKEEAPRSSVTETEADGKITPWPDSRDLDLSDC
Assay: Displacement of [3H]CP-55940 from human recombinant CB2 receptor expressed in HEK293 cells
Type: cell-based
Conditions: read-out: Ki
pKi: −log10 of the molar value.
propertyMeasured: pKi

# compound, resultModifier, reportedResult
records = [
    ("CC1(C)C(C(=O)c2cn(CCCN3CCOCC3)c3ccccc23)C1(C)C", "<", 6.00),
    ("CC1(C)C(C(=O)c2cn(CCN)c3ccccc23)C1(C)C", "<", 6.00),
    ("CN1CCC(CCn2cc(C(=O)C3C(C)(C)C3(C)C)c3ccccc32)CC1", "<", 6.00),
    ("CC1(C)C(C(=O)c2cn(C[C@H]3CCCO3)c3ccccc23)C1(C)C", "=", 8.42),
    ("CC1(C)C(C(=O)c2cn(C(=O)CC3CCOCC3)c3ccccc23)C1(C)C", "<", 6.00),
    ("Cc1ncsc1CCn1cc(C(=O)C2C(C)(C)C2(C)C)c2ccccc21", "=", 7.74),
    ("CC1(C(=O)c2cn(CC3CCOCC3)c3ccccc23)CC(F)(F)C1(F)F (centres undefined)", "=", 7.33),
    ("CC1(C)C(C(=O)c2cn(CCN3CCCCC3)c3ccccc23)C1(C)C", "=", 8.64),
    ("CC1(C)C(C(=O)c2cn(CCO)c3ccccc23)C1(C)C", "=", 7.25),
    ("CC1(C)C(C(=O)c2cn(Cc3cccnc3)c3ccccc23)C1(C)C", "=", 7.52),
    ("CC1(C)C(C(=O)c2cn(C[C@@H]3CCCO3)c3ccccc23)C1(C)C", "=", 8.48),
    ("CC1(C)C(C(=O)c2cn(CCN3CCCCCC3)c3ccccc23)C1(C)C", "=", 7.59),
    ("CC1(C)C(C(=O)c2cn(CCc3cccnc3)c3ccccc23)C1(C)C", "=", 7.70),
    ("CCCCCn1cc(C(=O)C2C(C)(C)C2(C)C)c2ccccc21", "=", 8.74),
]

----------
# reported EC50; entries follow
Target: Cannabinoid receptor 2 (Homo sapiens, UniProt P34972)
Experiment: Agonist activity at human recombinant CB2 receptor expressed in HEK293 cells coexpressing Galphaq/o5 assessed as calcium mobilization by FLIPR assay
Format: functional, cell-based

# compound, resultModifier, EC50 (nM)
data = [
    ("O=C(c1cn(CCN2CCOCC2)c2ccccc12)C1CCC1", ">", 10000),
    ("CC1(C)C(C(=O)c2cn(C[C@H]3CCCO3)c3ccccc23)C1(C)C", "=", 11),
    ("CC1(C)C(C(=O)c2cn(Cc3cccnc3)c3ccccc23)C1(C)C", "=", 75),
    ("CC1(C)C(C(=O)c2cn(CCCO)c3ccccc23)C1(C)C", "=", 27),
    ("CC[C@H]1CC[C@H](C(=O)c2cn(CCN3CCOCC3)c3ccccc23)CC1", "=", 85),
    ("COC(=O)CCn1cc(C(=O)C2C(C)(C)C2(C)C)c2ccccc21", "=", 17),
    ("CC1(C)C(C(=O)c2cn(CCO)c3ccccc23)C1(C)C", "=", 440),
    ("CC1(C)C(C(=O)c2cn(CCN3C(=O)CCC3=O)c3ccccc23)C1(C)C", "=", 77),
    ("O=C(c1cn(CC2CCOCC2)c2ccccc12)C12CC3CC(CC1C3)C2", "=", 7),
    ("O=C(c1cn(CC2CCOCC2)c2ccccc12)C12CC3CC(CC(C3)O1)C2", "=", 8),
    ("CC1(C)C(C(=O)c2cn(CCN3CCCC3)c3ccccc23)C1(C)C", "=", 70),
    ("CN1CCCCC1Cn1cc(C(=O)C2C(C)(C)C2(C)C)c2ccccc21 (centres undefined)", "=", 628),
    ("CC1(C)C(C(=O)c2cn(CCc3ccncc3)c3ccccc23)C1(C)C", "=", 162),
    ("CC1(C)C(C(=O)c2cn(CCc3nsc(Cl)n3)c3ccccc23)C1(C)C", "=", 109),
    ("CC1(C)C(C(=O)c2cn(Cc3ccccc3)c3ccccc23)C1(C)C", "=", 93),
    ("CC1(C)C(C(=O)c2cn(CC3CCOC3)c3ccccc23)C1(C)C (centres undefined)", "=", 6),
    ("COCCCn1cc(C(=O)C2C(C)(C)C2(C)C)c2ccccc21", "=", 26),
    ("CC1(C)C(C(=O)c2cn(CCC3CCOCC3)c3ccccc23)C1(C)C", "=", 15),
    ("CCCCn1cc(C(=O)C2C(C)(C)C2(C)C)c2ccccc21", "=", 5),
    ("CC1(C)C(C(=O)c2cn(CCc3cccs3)c3ccccc23)C1(C)C", "=", 96),
    ("CN(C)CCn1cc(C(=O)C2C(C)(C)C2(C)C)c2ccccc21", "=", 35),
    ("Cc1ncsc1CCn1cc(C(=O)C2C(C)(C)C2(C)C)c2ccccc21", "=", 49),
    ("O=C(c1cn(CCN2CCOCC2)c2ccccc12)C1CCCC1", "=", 819),
    ("CC1(C)C(C(=O)c2cn(CCC(N)=O)c3ccccc23)C1(C)C", "=", 294),
    ("CCCCCn1cc(C(=O)C2C(C)(C)C2(C)C)c2ccccc21", "=", 29),
    ("CC1(C)C(C(=O)c2cn(CC3OCCO3)c3ccccc23)C1(C)C", "=", 7),
    ("CC1(C)C(C(=O)c2cn(CCN3CCNCC3)c3ccccc23)C1(C)C", "=", 2200),
    ("CC1(C)C(C(=O)c2cn(CCc3ccccn3)c3ccccc23)C1(C)C", "=", 542),
    ("CC1(C(=O)c2cn(CC3CCOCC3)c3ccccc23)CC1(Cl)Cl (centres undefined)", "=", 782),
]

----------
Biological target: UniProt P34972
Assay: Agonist activity at human recombinant CB2 receptor expressed in HEK293 cells coexpressing Galphaq/o5 assessed as calcium mobilization by FLIPR assay
Format: functional, cell-based
Threshold-based label: EC50 under 60 nM gives YES, EC50 not under 60 nM gives NO.

# molecule, groupLabel
records = [
    ("CC1(C)C(C(=O)c2cn(CCN3CCOCC3)c3ccccc23)C1(C)C", "YES"),
    ("COCCn1cc(C(=O)C2C(C)(C)C2(C)C)c2ccccc21", "YES"),
    ("CC1(C)C(C(=O)c2cn(CCN3CCCCCC3)c3ccccc23)C1(C)C", "NO"),
    ("CC(=O)CCCCn1cc(C(=O)C2C(C)(C)C2(C)C)c2ccccc21", "YES"),
    ("CC1(C)C(C(=O)c2cn(CCCC(F)(F)F)c3ccccc23)C1(C)C", "YES"),
    ("CC1(C)C(C(=O)c2cn(CCN3CCCCC3)c3ccccc23)C1(C)C", "YES"),
    ("CSCCCCn1cc(C(=O)C2C(C)(C)C2(C)C)c2ccccc21", "YES"),
    ("CC1(C)C(C(=O)c2cn(CCN3CCCC3=O)c3ccccc23)C1(C)C", "YES"),
    ("CC1(C)C(C(=O)c2cn(CCN)c3ccccc23)C1(C)C", "NO"),
    ("CC1(C)C(C(=O)c2cn(CCCCO)c3ccccc23)C1(C)C", "YES"),
    ("O=C(c1cn(CCN2CCOCC2)c2ccccc12)[C@@H]1CC12CCCCC2", "YES"),
    ("CC1(C)C(C(=O)c2cn(C[C@@H]3CCCO3)c3ccccc23)C1(C)C", "YES"),
    ("CC1(C)C(C(=O)c2cn(CCc3ccsc3)c3ccccc23)C1(C)C", "NO"),
    ("CCCn1cc(C(=O)C2C(C)(C)C2(C)C)c2ccccc21", "YES"),
    ("CC(C)[C@H]1CC[C@H](C(=O)c2cn(CCN3CCOCC3)c3ccccc23)CC1", "NO"),
    ("O=C(c1cn(CC2CCOCC2)c2ccccc12)C1CCCC1", "YES"),
    ("CC1(C(=O)c2cn(CCN3CCOCC3)c3ccccc23)CC1(Cl)Cl (configuration not stated)", "NO"),
]

Origin of measurements: ChEMBL document CHEMBL1156767
